# Protocol summary: Kinetic solubility in sodium dodecyl sulfate solution at pH 6.8 and 37° C.
# Format: physicochemical
# Assay setup: 0.2% sodium dodecyl sulfate (SDS) solution, 37 °C, pH 6.8, aqueous with cosolvent or surfactant or cyclodextrin, pH 6.8, 0.2% SDS solution, after 60 minutes
Property measured: solubility kinetic at 60 min

// field: solubility kinetic at 60 min; key: CN(C)c1nc(Cc2ccc(NC(=O)c3ccc(C(F)(F)F)cc3)cc2)nc(N(C)C)c1CC(=O)O [reference compound] ; value = ~245 µg/mL
